Documented Cmax across a set of compounds
assay: Pharmacokinetics in rat plasma; type: in vivo, Wistar rats; settings: Wistar, rat, plasma, po, 100 mg/kg, Cmax, FS-C: normal (blank) rats, oral FS 100 mg kg^−1, n = 6
Please state the figure in ng/mL; there is no need to write the unit.

{"compound": "O=C(/C=C/c1ccc(O)c(O)c1/C=C/c1ccc(O)c(O)c1)O[C@H](Cc1ccc(O)c(O)c1)C(=O)O [Salvianolic acid A]", "value-units": "ng/mL", "Cmax": 13.2}

Return Cmax for the following compound: O=C(/C=C/c1ccc(O)c2c1[C@H](C(=O)O)[C@@H](c1ccc(O)c(O)c1)O2)O[C@H](Cc1ccc(O)c(O)c1)C(=O)O [Lithospermic acid]
11.4

Return Cmax for the following compound: O=C(/C=C/c1ccc(O)c(O)c1)O[C@H](Cc1ccc(O)c(O)c1)C(=O)O [Rosmarinic acid]
54.5

Return Cmax for the following compound: O=C(O)/C=C/c1ccc(O)c(O)c1 [Caffeic acid]
5.78

* * *

assay: Stability test of QC samples; format: physicochemical, rat; conditions: Store at −20 °C for 20 days; medium concentration QC sample in rat plasma
Documented Stability, Accuracy (RE, %) across a set of molecules
Please state the figure in %; there is no need to write the unit.

{"molecule": "O=C(O)/C=C/c1ccc(O)c(O)c1 [Caffeic acid]", "measured-property": "Stability, Accuracy (RE, %)", "observed-measurement": 0.41}
{"molecule": "O=C(/C=C/c1ccc(O)c2oc(-c3ccc(O)c(O)c3)cc12)O[C@H](Cc1ccc(O)c(O)c1)C(=O)O [Salvianolic acid C]", "measured-property": "Stability, Accuracy (RE, %)", "observed-measurement": 4.74}
{"molecule": "O=C(/C=C/c1ccc(O)c(O)c1/C=C/c1ccc(O)c(O)c1)O[C@H](Cc1ccc(O)c(O)c1)C(=O)O [Salvianolic acid A]", "measured-property": "Stability, Accuracy (RE, %)", "observed-measurement": "−9.12"}

Next molecule, Stability, Accuracy (RE, %) to be filled in.
Return Stability, Accuracy (RE, %) for the following molecule: C[C@@H]1O[C@@H](OC[C@H]2O[C@@H](Oc3c(-c4ccc(O)c(O)c4)oc4cc(O)cc(O)c4c3=O)[C@H](O)[C@@H](O)[C@@H]2O)[C@H](O)[C@H](O)[C@H]1O [Rutin]
−5.30

* * *

assay: Stability test of QC samples; format: physicochemical, rat; details: Three freeze-thaw cycles; high concentration QC sample in rat plasma
Documented Stability, Accuracy (RE, %) across a set of compounds
Please state the figure in %; there is no need to write the unit.

{"structure-as-smiles": "C[C@@H]1O[C@@H](OC[C@H]2O[C@@H](Oc3c(-c4ccc(O)c(O)c4)oc4cc(O)cc(O)c4c3=O)[C@H](O)[C@@H](O)[C@@H]2O)[C@H](O)[C@H](O)[C@H]1O", "value-units": "%", "observed-measurement": 4.10}
{"structure-as-smiles": "O=C(/C=C/c1ccc(O)c2oc(-c3ccc(O)c(O)c3)cc12)O[C@H](Cc1ccc(O)c(O)c1)C(=O)O", "value-units": "%", "observed-measurement": "−3.54"}
{"structure-as-smiles": "O=C(/C=C/c1ccc(O)c2c1[C@H](C(=O)O)[C@@H](c1ccc(O)c(O)c1)O2)O[C@H](Cc1ccc(O)c(O)c1)C(=O)O", "value-units": "%", "observed-measurement": "−10.67"}
{"structure-as-smiles": "O=C(O)[C@H](O)Cc1ccc(O)c(O)c1", "value-units": "%", "observed-measurement": "−3.63"}
{"structure-as-smiles": "O=C(O)/C=C/c1ccc(O)c(O)c1", "value-units": "%", "observed-measurement": 12.71}

Return Stability, Accuracy (RE, %) for the following compound: `O=C(/C=C/c1ccc(O)c(O)c1/C=C/c1ccc(O)c(O)c1)O[C@H](Cc1ccc(O)c(O)c1)C(=O)O`
−10.32

Return Stability, Accuracy (RE, %) for the following compound: `O=C(/C=C/c1ccc(O)c(O)c1)O[C@H](Cc1ccc(O)c(O)c1)C(=O)O`
−4.84

* * *

Documented MRT last across a set of compounds
assay: Pharmacokinetics in rat plasma; assay type: in vivo, Wistar rats; conditions: Wistar, rat, plasma, po, 100 mg/kg, MRT0-t, FS-C: normal (blank) rats, oral FS 100 mg kg^−1, n = 6
Please state the figure in h; there is no need to write the unit.

Some solved cases for reference:
{"structure-as-smiles": "O=C(O)/C=C/c1ccc(O)c(O)c1", "value-units": "h", "MRT last": 5.78}
{"structure-as-smiles": "O=C(/C=C/c1ccc(O)c(O)c1/C=C/c1ccc(O)c(O)c1)O[C@H](Cc1ccc(O)c(O)c1)C(=O)O", "value-units": "h", "MRT last": 7.12}
{"structure-as-smiles": "O=C(/C=C/c1ccc(O)c2c1[C@H](C(=O)O)[C@@H](c1ccc(O)c(O)c1)O2)O[C@H](Cc1ccc(O)c(O)c1)C(=O)O", "value-units": "h", "MRT last": 6.61}

Next compound, MRT last to be filled in.
Return MRT last for the following compound: `O=C(/C=C/c1ccc(O)c(O)c1)O[C@H](Cc1ccc(O)c(O)c1)C(=O)O`
5.01
